System: K. aerogenes NCTC 7427
Experiment: Broth microdilution MIC/MBC
Format: cell-based
Settings: K. aerogenes NCTC 7427, 24 h at 37° C.
Method: Broth microdilution tests were performed according to NCCLS guidelines. […] After determining the MICs, minimum bactericidal concentrations (MBCs) were determined by spreading 20 μl of suspension from wells showing no growth onto MHA plates, which were then incubated for 24 h and examined for 99.9% killing.
EXPERIMENTAL READOUT: log10 MIC (log10 of the value in µM)
All values: base-10 log of MIC in µM.

Answered examples (4):
>  <STRUCTURE>
CCCCCCCCCC[n+]1ccn(C)c1.CCCCCCCCCC[n+]1ccn(C)c1.[Cl][Cu-2]([Cl])([Cl])[Cl]

>  <log10 MIC>
2.34

$$$$
>  <STRUCTURE>
CCCCCCCC[n+]1cccc2ccccc21.[Br-]

>  <log10 MIC>
1.78

$$$$
>  <STRUCTURE>
CCCCCCCCCCCCCC[n+]1cccc2ccccc21.[Br-]

>  <log10 MIC>
0.76

$$$$
>  <STRUCTURE>
CCCCCCCCCCCCCCCCCC[n+]1cccc2ccccc21.[Br-]

>  <log10 MIC>
2.02

$$$$

Enquiry: Given the compound "CCCCCCCCCCCCCCCC[n+]1cccc2ccccc21.[Br-]" , what is its reported log10 MIC?
Return: 1.55

Enquiry: Given the compound "CCCCCCCCCCCC[n+]1cccc2ccccc21.[Br-]" , what is its reported log10 MIC?
Return: 1.11

Enquiry: Given the compound "CCCCCCCCCCCC[n+]1ccn(C)c1.[Br][Ag-][Br]" , what is its reported log10 MIC?
Return: 1.54

Enquiry: Given the compound "CCCCCCCCCCCCCCCCn1cc[n+](C)c1.[Br][Ag-][Br]" , what is its reported log10 MIC?
Return: 1.54

Enquiry: Given the compound "CCCCCCCCCCCCCCCCCC[n+]1ccn(C)c1.[Br][Ag-][Br]" , what is its reported log10 MIC?
Return: 1.82

Enquiry: Given the compound "CCCCCCCCCCCCn1cc[n+](C)c1.CCCCCCCCCCCCn1cc[n+](C)c1.[Cl][Cu-2]([Cl])([Cl])[Cl]" , what is its reported log10 MIC?
Return: 1.71

Enquiry: Given the compound "CCCCCCCCCCCCCCCCCCn1cc[n+](C)c1.CCCCCCCCCCCCCCCCCCn1cc[n+](C)c1.[Cl][Cu-2]([Cl])([Cl])[Cl]" , what is its reported log10 MIC?
Return: 2.53

Enquiry: Given the compound "CCCCCCCCCCn1cc[n+](C)c1.[Br][Ag-][Br]" , what is its reported log10 MIC?
Return: 1.90

Enquiry: Given the compound "CCCCCCCCn1cc[n+](C)c1.[Cl-]" , what is its reported log10 MIC?
Return: 3.16

----------
system: P. mirabilis NCTC 12442; assay: Broth microdilution MIC/MBC; type: cell-based; settings: P. mirabilis NCTC 12442, 24 h at 37° C.
Hi! Just check whether MIC is below 70 µM. Below gives Criterion met, equal or above gives Criterion not met.

>  <STRUCTURE>
CCCCCCCCCCCC[n+]1ccn(C)c1.[Br][Ag-][Br]

>  <ASSIGNED LABEL>
Criterion met

$$$$

Enquiry: Regarding "CCCCCCCCCCCC[n+]1cccc2ccccc21.[Br-]" , kindly confirm whether its MIC is beneath 70 µM.
Return: Criterion met

Enquiry: Regarding "CCCCCCCCCCCCCCCCCC[n+]1cccc2ccccc21.[Br-]" , kindly confirm whether its MIC is beneath 70 µM.
Return: Criterion not met

Enquiry: Regarding "CCCCCCCC[n+]1cccc2ccccc21.[Br-]" , kindly confirm whether its MIC is beneath 70 µM.
Return: Criterion not met

----------
system: E. coli NCTC 8196; experiment: Broth microdilution MIC/MBC; format: cell-based; conditions: Escherichia coli, NCTC8196; E. coli NCTC 8196, 24 h at 37° C.
log10 MIC overview
All values: base-10 log of MIC in µM.

Answered examples (5):
>  <COMPOUND>
CCCCCCCCCCCCn1cc[n+](C)c1.[Cl-] [C12MIMCl, 1-dodecyl-3-methylimidazolium chloride]

>  <TEST TARGET>
E. coli NCTC 8196

>  <EXPERIMENTAL READOUT>
log10 MIC

>  <NUMBER>
1.86

$$$$
>  <COMPOUND>
CCCCCCCCCCCCCC[n+]1cccc2cc(C)ccc21.[Br-] [IL3, N-tetradecyl-6-methylquinolinium bromide]

>  <TEST TARGET>
E. coli NCTC 8196

>  <EXPERIMENTAL READOUT>
log10 MIC

>  <NUMBER>
1.06

$$$$
>  <COMPOUND>
CCCCCCCCCCCCCC[n+]1ccc2ccccc2c1.[Br-] [IL4, N-tetradecylisoquinolinium bromide]

>  <TEST TARGET>
E. coli NCTC 8196

>  <EXPERIMENTAL READOUT>
log10 MIC

>  <NUMBER>
1.38

$$$$
>  <COMPOUND>
CCCCCCCCCCn1cc[n+](C)c1.[Cl-] [C10MIMCl, 1-decyl-3-methylimidazolium chloride]

>  <TEST TARGET>
E. coli NCTC 8196

>  <EXPERIMENTAL READOUT>
log10 MIC

>  <NUMBER>
2.51

$$$$
>  <COMPOUND>
CCCCCCCCCCCCCC[n+]1ccn(C)c1C [IL1, reference compound]

>  <TEST TARGET>
E. coli NCTC 8196

>  <EXPERIMENTAL READOUT>
log10 MIC

>  <NUMBER>
1.67

$$$$

Enquiry: Request - read-out log10 MIC | tested on E. coli NCTC 8196 | compound "CCCCCCCCCCCCCCn1cc[n+](C)c1.[Cl-]"
Return: 1.52

Enquiry: Request - read-out log10 MIC | tested on E. coli NCTC 8196 | compound CCCCCCCCCCCCCC[N+](C)(C)CCO [IL2, reference compound]
Return: 1.73

----------
Tested on: B. cereus
Assay: Broth microdilution MIC/MBC
Format: cell-based
Conditions: 99.9% killing
Experimental: Broth microdilution tests were performed according to NCCLS guidelines. […] After determining the MICs, minimum bactericidal concentrations (MBCs) were determined by spreading 20 μl of suspension from wells showing no growth onto MHA plates, which were then incubated for 24 h and examined for 99.9% killing.
MBC overview
Answer with a number only, understood to be in µM.

Answered examples (3):
>  <COMPOUND>
CCCCCCCC[n+]1cccc2ccccc21.[Br-] [1-alkyl-3-quinolinium bromides 8]

>  <TEST TARGET>
B. cereus

>  <EXPERIMENTAL READOUT>
MBC

>  <RESULT UNITS>
µM

>  <NUMBER>
726

$$$$
>  <COMPOUND>
CCCCCCCCCCCCCC[n+]1cccc2ccccc21.[Br-] [1-alkyl-3-quinolinium bromides 14]

>  <TEST TARGET>
B. cereus

>  <EXPERIMENTAL READOUT>
MBC

>  <RESULT UNITS>
µM

>  <NUMBER>
29.75

$$$$
>  <COMPOUND>
CCCCCCCCCC[n+]1cccc2ccccc21.[Br-] [1-alkyl-3-quinolinium bromides 10]

>  <TEST TARGET>
B. cereus

>  <EXPERIMENTAL READOUT>
MBC

>  <RESULT UNITS>
µM

>  <NUMBER>
278.7

$$$$

Now let's try a different one.
Enquiry: Given the compound CCCCCCCCCCCC[n+]1cccc2ccccc21.[Br-] [1-alkyl-3-quinolinium bromides 12] , what is its reported MBC?
Return: 77.4

----------
log10 of MIC overview
system: P. mirabilis NCTC 12442; experiment: Broth microdilution MIC/MBC; assay type: cell-based; details: P. mirabilis NCTC 12442, 24 h at 37° C.
All values: base-10 log of MIC in µM.

Answered examples (5):
>  <COMPOUND>
CCCCCCCC[n+]1ccn(C)c1.[Br][Ag-][Br] [1-alkyl-3-methylimidazolium-AgBr2 8]

>  <log10 of MIC>
2.23

$$$$
>  <COMPOUND>
CCCCCCCCCCCCCCCCCCn1cc[n+](C)c1.CCCCCCCCCCCCCCCCCCn1cc[n+](C)c1.[Cl][Cu-2]([Cl])([Cl])[Cl] [(1-alkyl-3-methylimidazolium)2CuCl4 18]

>  <log10 of MIC>
2.53

$$$$
>  <COMPOUND>
CCCCCCCCCC[n+]1ccn(C)c1.CCCCCCCCCC[n+]1ccn(C)c1.[Cl][Cu-2]([Cl])([Cl])[Cl] [(1-alkyl-3-methylimidazolium)2CuCl4 10]

>  <log10 of MIC>
2.34

$$$$
>  <COMPOUND>
CCCCCCCCCCCCCCCCn1cc[n+](C)c1.[Br][Ag-][Br] [1-alkyl-3-methylimidazolium-AgBr2 16]

>  <log10 of MIC>
1.54

$$$$
>  <COMPOUND>
CCCCCCCCCCCCn1cc[n+](C)c1.CCCCCCCCCCCCn1cc[n+](C)c1.[Cl][Cu-2]([Cl])([Cl])[Cl] [(1-alkyl-3-methylimidazolium)2CuCl4 12]

>  <log10 of MIC>
1.71

$$$$

Now let's try a different one.
Enquiry: Request - read-out log10 of MIC | tested on P. mirabilis NCTC 12442 | compound CCCCCCCCn1cc[n+](C)c1.[Cl-] [C8MIMCl]
Return: 3.16
